All values here come from ChEMBL document CHEMBL1961873.

inhibition by entry:
target_under_test: Cyclin-dependent kinase 4 (Homo sapiens)
test_conditions: at 0.1 µM
Description: GSK_PKIS: CDK4/cyclinD mean inhibition at 0.1 uM [Nanosyn]
Numbers only here, please. The scale is %.

item_smiles=NC(=O)c1ccc2c(-c3ccnc(NCCCO)n3)c(-c3ccc(F)cc3)nn2c1 target_under_test="Cyclin-dependent kinase 4 (Homo sapiens)" reading=3.3
item_smiles=COc1ccc(Nc2ncc(-c3ccccc3)o2)cc1OC target_under_test="Cyclin-dependent kinase 4 (Homo sapiens)" reading=5.15
item_smiles=FC(F)(F)CNc1nccc(-c2cnn3ncccc23)n1 target_under_test="Cyclin-dependent kinase 4 (Homo sapiens)" reading=2.33
item_smiles=CCCNc1cccc(-n2ncc3c(N/N=C/c4ccncc4)ncnc32)c1 target_under_test="Cyclin-dependent kinase 4 (Homo sapiens)" reading=0.2

Pending compound:
Quote inhibition reported for `CCn1c(-c2nonc2N)nc2cncc(C(=O)NCCNC)c21` please. 1.73

====

Test system: Tyrosine-protein kinase ABL1 (Homo sapiens), P00519 [Y253F]
test_conditions: at 0.1 µM
// values below are reported inhibition
Output spec: scalar in %, unitless text.

For orientation, consider the following solved cases.
compound="CC1=C(C(=O)Nc2ccc3[nH]nc(C)c3c2)C(c2ccc(C(F)(F)F)cc2)CC(=O)N1 (stereo not given)" target_under_test="Tyrosine-protein kinase ABL1 (Homo sapiens), P00519 [Y253F]" unit_of_measure=% reading=4.61
compound=COc1ccc2ncn(-c3cc(O[C@H](C)c4ccccc4C(F)(F)F)c(C(N)=O)s3)c2c1 target_under_test="Tyrosine-protein kinase ABL1 (Homo sapiens), P00519 [Y253F]" unit_of_measure=% reading=-1.93
compound=COc1cc(N2CCN(C(C)C)CC2)ccc1Nc1nc(Nc2cccc(F)c2C(=O)O)c2cc[nH]c2n1 target_under_test="Tyrosine-protein kinase ABL1 (Homo sapiens), P00519 [Y253F]" unit_of_measure=% reading=4.3
compound=O=C(Nc1n[nH]c2nnc(-c3cccnc3)cc12)C1CC1 target_under_test="Tyrosine-protein kinase ABL1 (Homo sapiens), P00519 [Y253F]" unit_of_measure=% reading=0.48
compound=COc1cc2c(cc1Nc1nc(Nc3cccc(F)c3C(N)=O)c3cc[nH]c3n1)N(C(=O)CN1CCN(C(C)C)CC1)CC2 target_under_test="Tyrosine-protein kinase ABL1 (Homo sapiens), P00519 [Y253F]" unit_of_measure=% reading=-2.26
compound=COC(=O)Nc1nc2cc(Oc3ccc(NC(=O)Nc4ccccc4)cc3)ccc2[nH]1 target_under_test="Tyrosine-protein kinase ABL1 (Homo sapiens), P00519 [Y253F]" unit_of_measure=% reading=6.49
compound=CN1CCC(n2cnc(-c3ccc(F)cc3)c2-c2ccnc(NCCO)n2)CC1 target_under_test="Tyrosine-protein kinase ABL1 (Homo sapiens), P00519 [Y253F]" unit_of_measure=% reading=2.79
compound=CCS(=O)(=O)c1ccc(OC)c(Nc2ncc(-c3cccc(F)c3)o2)c1 target_under_test="Tyrosine-protein kinase ABL1 (Homo sapiens), P00519 [Y253F]" unit_of_measure=% reading=52.5
compound=COC(=O)Nc1nc2ccc(Oc3ccc(NC(=O)Nc4cc(C(F)(F)F)ccc4F)cc3)cc2s1 target_under_test="Tyrosine-protein kinase ABL1 (Homo sapiens), P00519 [Y253F]" unit_of_measure=% reading=32.2
compound=COc1c(C(N)=O)cc(-c2ccc(Cl)cc2)cc1-c1ccc(S(N)(=O)=O)cc1 target_under_test="Tyrosine-protein kinase ABL1 (Homo sapiens), P00519 [Y253F]" unit_of_measure=% reading=2.41

Return reported inhibition. Input compound: `CCS(=O)(=O)c1ccc(OC)c(Nc2ncc(-c3cccc(C(C)=O)c3)o2)c1` 25.4

Identify inhibition associated with the compound `O=C(O[C@H]1CN[C@H](C#Cc2cc3ncnc(Nc4ccc5c(ccn5Cc5cc(F)ccc5F)c4)c3s2)C1)N1CCOCC1` 2.24

Look up inhibition of `c1cnn2ncc(-c3ccnc(NCCCN4CCOCC4)n3)c2c1` and report it. 4.67

Give inhibition for the following compound: `COc1cccc(Nc2nccc(-c3cnn4ncccc34)n2)c1` 7.39

Provide measured inhibition value, entry: `O=C(O[C@H]1CN[C@H](C#Cc2cc3ncnc(Nc4ccc(OCc5cccc(F)c5)c(Cl)c4)c3s2)C1)N1CCOCC1` 2.93

Tell me measured inhibition for `COc1cc(Nc2ncc(-c3ccccc3)o2)cc(OC)c1` please. 13.2

For `Cn1c(-c2nonc2N)nc2cnccc21` , write its inhibition. 4.55

Return reported inhibition. Input compound: `CS(=O)(=O)CCNCc1ccc(-c2ccc3ncnc(Nc4ccc(OCc5ccccc5)cc4)c3c2)o1` 2.39

Input `CNC(=O)c1ncccc1Nc1nc(Nc2cc3c(cc2OC)CCCN3C(=O)CN(C)C)nc2[nH]ccc12` , output reported inhibition. 3.84

Read the entry `CCOc1ccc2c(-c3ccnc(Nc4cc(OC)cc(C(F)(F)F)c4)n3)cnn2n1` and write its reported inhibition. 2.66
